- EXPERIMENT: melting temperature; fluorescence melt of hairpins on a sequencing array, two-state fit, raised by 9.35 °C to match UV melts
- PARTICULARS: sodium 0.088 M
QUANTITY NAME: Tm (°C)
Numbers only, in °C.

# annotated cases, reported Tm shown
GCATTTGGAAACAAATAC (.(((((....))))).); 29.3
CGTCACGGAAACGTTACG (((.(((....))).))); 45.3
GGTGCGGCGAAAGCCACC (((..(((....)))))); 48.2
GAGTACGGAAACGTGCTC (((.(((....))).))); 53.8
GAGCATGGAAACACGCTC ((((.((....)).)))); 44

// below: Tm requested for another sequence
What does the data say about its Tm? Entry: CGGCCGCGGAAACGCCCG (((..(((....))))))
42.2
